Taken from patent US20210070881A1.

experimental.system: T1, human TfR (human, UniProt P02786 89-760, limits assumed)
T1 construct: Protein coated on ELISA plates; also called human transferrin receptor protein 1
T1 sequence (P02786 89-760 limits assumed): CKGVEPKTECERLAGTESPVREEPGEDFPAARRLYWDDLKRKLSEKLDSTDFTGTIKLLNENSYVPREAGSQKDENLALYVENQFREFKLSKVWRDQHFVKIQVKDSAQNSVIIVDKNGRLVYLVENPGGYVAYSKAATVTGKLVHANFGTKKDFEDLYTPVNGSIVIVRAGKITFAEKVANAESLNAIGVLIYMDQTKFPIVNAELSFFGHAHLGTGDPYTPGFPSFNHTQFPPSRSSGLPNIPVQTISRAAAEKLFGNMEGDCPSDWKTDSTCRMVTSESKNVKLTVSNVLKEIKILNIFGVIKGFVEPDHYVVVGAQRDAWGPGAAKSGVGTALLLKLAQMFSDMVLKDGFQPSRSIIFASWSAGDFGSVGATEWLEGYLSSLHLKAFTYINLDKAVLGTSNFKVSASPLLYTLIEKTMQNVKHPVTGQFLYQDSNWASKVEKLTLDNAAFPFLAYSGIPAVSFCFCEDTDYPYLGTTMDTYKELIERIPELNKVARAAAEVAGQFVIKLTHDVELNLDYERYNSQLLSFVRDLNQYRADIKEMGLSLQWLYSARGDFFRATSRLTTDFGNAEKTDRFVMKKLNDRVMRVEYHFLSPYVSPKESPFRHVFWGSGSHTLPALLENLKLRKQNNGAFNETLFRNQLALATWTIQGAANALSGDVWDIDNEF
assay.remarks: soft-randomization libraries selected on TfR

| binder | binding result |
| --- | --- |
| Clone CH3C.51 (designed binder, modified Fc polypeptide) APELLGGPSVFLFPPKPKDTLMISRTPEVTCVVVDVSHEDPEVKFNWYVDGVEVHNAKTKPREEQYNSTYRVVSVLTVLHQDWLNGKEYKCKVSNKALPAPIEKTISKAKGQPREPQVYTLPPSRDELTKNQVSLTCLVKGFYPSDIAVEWESLGHVWVGYKTTPPVLDSDGSFFLYSKLTVSKSEWQQGWVFSCSVMHEALHNHYTQKSLSLSPGK | binds |
| Clone CH3C.25 (designed binder, modified Fc polypeptide) APELLGGPSVFLFPPKPKDTLMISRTPEVTCVVVDVSHEDPEVKFNWYVDGVEVHNAKTKPREEQYNSTYRVVSVLTVLHQDWLNGKEYKCKVSNKALPAPIEKTISKAKGQPREPQVYTLPPSRDELTKNQVSLTCLVKGFYPSDIAVEWESMGHVWVGYKTTPPVLDSDGSFFLYSKLTVDKSTWQQGWVFSCSVMHEALHNHYTQKSLSLSPGK | binds |
| Clone CH3C.44 (designed binder, modified Fc polypeptide) APELLGGPSVFLFPPKPKDTLMISRTPEVTCVVVDVSHEDPEVKFNWYVDGVEVHNAKTKPREEQYNSTYRVVSVLTVLHQDWLNGKEYKCKVSNKALPAPIEKTISKAKGQPREPQVYTLPPSRDELTKNQVSLTCLVKGFYPSDIAVEWESYGTEWSNYKTTPPVLDSDGSFFLYSKLTVSKSEWQQGFVFSCSVMHEALHNHYTQKSLSLSPGK | binds |
